EXPERIMENTAL_SYSTEM: SmPDE4A (Schistosoma mansoni)
Sequence (A0A5K4ENE3 entry or part of it): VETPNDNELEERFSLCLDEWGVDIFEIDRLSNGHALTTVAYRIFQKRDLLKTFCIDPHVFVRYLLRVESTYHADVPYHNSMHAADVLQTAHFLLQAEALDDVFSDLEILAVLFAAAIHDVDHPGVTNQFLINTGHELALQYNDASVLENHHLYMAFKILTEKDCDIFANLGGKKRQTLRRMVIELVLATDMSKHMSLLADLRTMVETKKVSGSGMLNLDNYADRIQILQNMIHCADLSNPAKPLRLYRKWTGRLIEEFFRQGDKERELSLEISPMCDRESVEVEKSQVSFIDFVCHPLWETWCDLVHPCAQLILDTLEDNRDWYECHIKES
ASSAY_PROCEDURE: biochemical
COND: recombinant catalytic domain; read-out: SmPDE4A IC50
QUANTITY_KIND: IC50

Briefly, IC50 measured for COc1ccc(C2CNC(=O)C2)cc1OC1CCCC1 (stereo not shown) [Rolipram, rolipram, reference compound] : > 10 µM

* * *

EXPERIMENTAL_SYSTEM: UniProt:A0A5K4ENE3
ASSAY_PROCEDURE: biochemical
COND: SmPDE4A IC50, recombinant catalytic domain; mean ± SD (number of assays) or two single assay values
QUANTITY_KIND: pIC50
Numbers only, as −log10 of the molar value.

# molecule N#Cc1ccc(Oc2ccc3c(c2)COB3O)cc1C(F)(F)F [Compound 5] ; its pIC50 = 7.33
